// AUC, modulator BJ.NMMA lookup, one value per entry
test system: BJeLR; test: Modulatory profiling: Alamar Blue viability, lethal compound cotreated with death modulator (EC50, AUC); type: cell-based, human; conditions: BJeLR cells; lethal compound cotreated with modulator NMMA; modulatory profile value (AUC); note: reference of the scale not given here
Lab note: record the figure alone, no unit after it.

compound	measured-number
Nc1ccccc1NC(=O)c1ccc(CNC(=O)OCc2cccnc2)cc1	−0.003779
OCCNCC(O)Cn1c2ccc(Br)cc2c2cc(Br)ccc21 (stereo not shown)	−0.01533
O=S1(=O)Nc2c(ccc3cccnc23)-c2ccccc21	−0.01601
COc1cc([C@@H]2c3cc4c(cc3[C@H](O)[C@H]3COC(=O)[C@H]23)OCO4)cc(OC)c1OC	−0.007043
COc1cc2c(c(OC)c1OC)-c1ccc(OC)c(=O)cc1[C@@H](NC(C)=O)CC2	−0.005221

## Task Output AUC, modulator BJ.NMMA of `C/C(=N\Nc1ncc(Cl)cc1Cl)c1ccccn1`
## Result 0.001966
